- Test Name: Cytotoxicity against HEK293T cells assessed as cell death measured after 1 hr by resazurin dye based analysis
- Assay type: toxicity, HEK-293T
- Run Conditions: human, HEK293T cells
Where a SMILES comes first, the peptide text is derived from it. Side-chain parts run from the residue outwards.
Listing of entries alongside the reported CC50 at 1 h.
Please respond with the number in µM and leave the unit unwritten.

{"columns": ["Compound", "Units Symbol", "Quantitative Result"],
 "data": [
  ["N=C(N)NCCC[C@H](NC(=O)[C@@H](N)CCCNC(=N)N)C(=O)NCCCC[C@H](NC(=O)[C@H](CCCNC(=N)N)NC(=O)[C@@H](N)CCCNC(=N)N)C(=O)N[C@@H](Cc1c[nH]c2ccccc12)C(=O)N[C@@H](Cc1c[nH]c2ccccc12)C(=O)N[C@@H](Cc1c[nH]c2ccccc12)C(=O)N[C@@H](Cc1c[nH]c2ccccc12)C(=O)N[C@@H](Cc1c[nH]c2ccccc12)C(N)=O (H-RRK([Arg-Arg])WWWWW-NH2)", "µM", 58.8]
]}

Next:
Which CC50 at 1 h is reported for this compound? N=C(N)NCCC[C@H](NC(=O)[C@H](CCCNC(=N)N)NC(=O)[C@H](CCCNC(=N)N)NC(=O)[C@H](CCCNC(=N)N)NC(=O)[C@H](CCCNC(=N)N)NC(=O)[C@H](CCCNC(=N)N)NC(=O)[C@H](CCCNC(=N)N)NC(=O)[C@H](CCCCNC(=O)[C@H](Cc1c[nH]c2ccccc12)NC(=O)[C@H](Cc1c[nH]c2ccccc12)NC(=O)[C@@H](N)Cc1c[nH]c2ccccc12)NC(=O)[C@H](Cc1c[nH]c2ccccc12)NC(=O)[C@H](Cc1c[nH]c2ccccc12)NC(=O)[C@@H](N)Cc1c[nH]c2ccccc12)C(N)=O
41.9
